Examples of compounds with documented MR [KF] follow.
Target: mineralocorticoid receptor (Rattus norvegicus)
Construct: mineralocorticoid receptor from rat kidney homogenate; from tissue; host or cells: rat kidney homogenate
Sequence (P22199 1-981): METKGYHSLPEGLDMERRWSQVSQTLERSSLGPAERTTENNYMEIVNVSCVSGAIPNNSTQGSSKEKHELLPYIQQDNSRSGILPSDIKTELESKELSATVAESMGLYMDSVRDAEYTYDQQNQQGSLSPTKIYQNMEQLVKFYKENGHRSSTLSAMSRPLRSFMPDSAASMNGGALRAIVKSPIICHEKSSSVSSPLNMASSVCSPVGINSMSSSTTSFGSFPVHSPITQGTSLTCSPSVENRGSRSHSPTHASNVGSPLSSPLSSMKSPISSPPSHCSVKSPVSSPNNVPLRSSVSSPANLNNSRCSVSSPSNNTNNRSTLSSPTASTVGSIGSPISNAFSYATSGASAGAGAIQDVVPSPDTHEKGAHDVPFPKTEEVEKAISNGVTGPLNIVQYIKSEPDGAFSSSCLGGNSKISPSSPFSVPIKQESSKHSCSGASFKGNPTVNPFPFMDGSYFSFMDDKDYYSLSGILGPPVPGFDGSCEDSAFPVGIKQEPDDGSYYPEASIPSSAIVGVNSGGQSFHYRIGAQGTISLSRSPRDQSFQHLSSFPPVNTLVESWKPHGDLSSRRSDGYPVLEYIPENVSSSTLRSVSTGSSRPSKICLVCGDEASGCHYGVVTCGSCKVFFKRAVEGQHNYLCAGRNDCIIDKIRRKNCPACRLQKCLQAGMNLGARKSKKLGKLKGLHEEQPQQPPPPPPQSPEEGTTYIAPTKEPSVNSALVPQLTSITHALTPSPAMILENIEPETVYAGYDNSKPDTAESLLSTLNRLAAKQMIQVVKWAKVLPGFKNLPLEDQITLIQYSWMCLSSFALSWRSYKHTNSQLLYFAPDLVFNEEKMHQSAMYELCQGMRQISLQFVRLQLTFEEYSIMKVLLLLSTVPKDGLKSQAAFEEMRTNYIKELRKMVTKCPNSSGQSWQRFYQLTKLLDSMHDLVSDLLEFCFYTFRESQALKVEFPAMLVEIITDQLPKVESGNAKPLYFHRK
Experiment: mineralocorticoid receptor binding, rat kidney homogenate
Details: 3H-aldosterone = 1
The response must contain the number and no unit.

# example entries with known answers
Compound	Tgt	MR [KF]
CCC1CC2=CC(=O)CCC2C2CCC3(CC)C(C4CC4C34CCCO4)C12 (stereo not drawn) [Example 9]	mineralocorticoid receptor (Rattus norvegicus)	42
CC[C@]12CCC3C4CCC(=O)C=C4C4CC4C3C1[C@@H]1C[C@@H]1[C@@]21CCCO1 (stereo partly drawn) [Example 2]	mineralocorticoid receptor (Rattus norvegicus)	0.4

Entry under review: CCC12CCC3C4CCC(=O)C(C)=C4C4CC4C3C1C1CC1C21CCCO1 (stereo not drawn) [Example 17] . Reported MR [KF]? 7.8

----------
Examples of molecules with documented MR [RBA] follow.
molecular target: mineralocorticoid receptor (Rattus norvegicus, UniProt P22199); construct: mineralocorticoid receptor from rat kidney homogenate; from tissue; host or cells: rat kidney homogenate; test: mineralocorticoid receptor binding, rat kidney homogenate; conditions: 3H-aldosterone = 100
The response must contain the number and no unit.

Entry under review: CCC12CCC3C4CCC(=O)C=C4CC(C)C3C1C1CC1C21CCCO1 (stereo not shown) [Example 7] . Reported MR [RBA]? 200

What do we get for CC[C@]12CCC3C4CCC(=O)C=C4C4CC4C3C1[C@@H]1C[C@@H]1[C@@]21CCCO1 (stereo partly shown) [Example 2] ? 250

What do we get for CC[C@]12CC[C@H]3[C@@H](CCC4=C(C)C(=O)CC[C@@H]43)[C@@H]1[C@@H]1C[C@@H]1[C@@]21CCCO1 [Example 14] ? 13

What do we get for C[C@]12CCC(=O)C=C1[C@@H]1C[C@@H]1[C@H]1[C@@H]3[C@@H]4C[C@@H]4[C@@]4(CCC(=O)O4)[C@@]3(C)CC[C@@H]12 [DRSP, reference compound] ? 333
